Exercise: state measured Temperature dependent loss in binding affinity for each of the binders provided.
Biological target: T1, human LRRC15 extracellular domain with C-terminal His tag (human, UniProt Q8TF66 22-538)
T1 construct: Recombinant, made in HEK293; the entry holds the extracellular domain and the His tag; SPR analyte; also called TPP-1545; hLRRC15 CT-His
T1 sequence: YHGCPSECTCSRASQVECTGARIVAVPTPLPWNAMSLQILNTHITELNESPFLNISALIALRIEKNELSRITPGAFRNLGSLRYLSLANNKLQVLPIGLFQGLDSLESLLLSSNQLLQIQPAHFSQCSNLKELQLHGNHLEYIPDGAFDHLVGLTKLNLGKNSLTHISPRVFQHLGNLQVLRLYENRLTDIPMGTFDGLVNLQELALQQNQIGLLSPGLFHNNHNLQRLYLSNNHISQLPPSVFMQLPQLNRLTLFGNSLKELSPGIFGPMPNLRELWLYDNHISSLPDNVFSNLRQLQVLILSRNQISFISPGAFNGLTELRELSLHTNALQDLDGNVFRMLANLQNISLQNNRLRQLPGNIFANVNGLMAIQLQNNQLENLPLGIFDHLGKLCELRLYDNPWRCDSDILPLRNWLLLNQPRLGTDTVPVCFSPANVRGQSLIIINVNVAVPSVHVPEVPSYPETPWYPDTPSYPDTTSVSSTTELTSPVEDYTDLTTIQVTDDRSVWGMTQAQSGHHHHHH
Assay: SPR at 10-37°C (Example 3)
Numbers only, in fold.

A selection of reference data follows.
>  <BINDER>
TPP-17074 (antibody, human IgG1, kappa, V domains shown, also called 438H-M161-K22-hIgG1) VH: EVQLLESGGGLVQPGGSLRLSCAASGFTFSGYMMSWVRQAPGKGLEWVSGIYPSGGYALYADSVKGRFTISRDNSKNTLYLQMNSLRAEDTAVYYCAREKAADLFGSYSEALDYWGQGTLVTVSS VL: DIQMTQSPDSLSASVGDRVTITCRASQDVGSWLAWYQQKPGKAPKLLIFAASYLESGIPSRFSGSGSGTDFTLTISSLQPEDFATYYCQQANGFPLTFGGGTKVEIKR

>  <ENDPOINT_VALUE>
33.3

$$$$
>  <BINDER>
TPP-14392 (antibody, human IgG1, kappa, V domains shown, also called 13612-rec05-hIgG1Kappa) VH: EVQLLESGGGLVQPGGSLRLSCAASGFTFSGYMMSWVRQAPGKGLEWVSGIYPSPGYTYYADSVKGRFTISRDNSKNTLYLQMNSLRAEDTAVYYCAREKASDLSGSYSEALDYWGQGTLVTVSS VL: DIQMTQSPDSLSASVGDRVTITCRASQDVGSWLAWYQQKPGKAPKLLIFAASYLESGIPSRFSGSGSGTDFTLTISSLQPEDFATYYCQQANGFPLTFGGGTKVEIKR

>  <ENDPOINT_VALUE>
56.9

$$$$

[ask] Hello, please tell me recorded Temperature dependent loss in binding affinity for this one: TPP-17078 (antibody, human IgG1, kappa, V domains shown, also called 438H-M308-H05-hIgGkappa) VH: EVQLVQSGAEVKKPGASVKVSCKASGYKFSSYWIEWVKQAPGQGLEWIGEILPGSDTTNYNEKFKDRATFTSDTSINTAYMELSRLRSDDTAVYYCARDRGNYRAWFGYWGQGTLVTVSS VL: DIQMTQSPSSLSASVGDRVTITCRASQSISSYLNWYQQKPGGAPKFLIYYASSLQSGVPSRFSGSGSGTDYTLTISSLQPEDFATYYCQQGFSLPWTFGGGTKVEIKR
[reply] 30.9

Just for reference, patent US20240108766A1 is where these values come from.
